// values below are reported IC50 at 72 h
assay: Cytotoxicity against HUVEC assessed as cell growth inhibition measured after 72 hrs by MTT assay; type: toxicity, cell-based; settings: human, HUVEC cells
assay.metric: IC50 at 72 h (µM)

Cc1ccc2c(c1)-c1nc(C#N)c(C#N)nc1C2=O    3.85
N#Cc1nc2c(nc1C#N)-c1cc(F)c(F)cc1/C2=N\NC1CCCCC1    17.2
Cc1cc2c(cc1C)-c1oc(CN3CCOCC3)c(C)c1C(=O)C2=O    19
CC1(C)CCC2=C(O1)c1ccccc1C(=O)C2=O    12.5

====

assay: Selectivity index, ratio of IC50 for cytotoxicity against HUVEC to IC50 for cytotoxicity against human MNNG cells; assay type: toxicity, cell-based; settings: HUVEC and human MNNG cells, read-out: Ratio IC50
// values below are reported selectivity ratio
assay.metric: selectivity ratio

Cc1cc2c(cc1C)-c1oc(CN3CCOCC3)c(C)c1C(=O)C2=O    13.3
N#Cc1nc2c(nc1C#N)-c1cc(F)c(F)cc1/C2=N\NC1CCCCC1    7.73
CC1(C)CCC2=C(O1)c1ccccc1C(=O)C2=O    5.16
Cc1ccc2c(c1)-c1nc(C#N)c(C#N)nc1C2=O    2.08
